Cited source for all entries: patent US11357779B2

METHOD SUMMARY: Plasma concentration versus time of Compound I and metabolite Compound III in patients dosed QD or BID with Form B of Compound II plus fulvestrant
Format: in vivo, human
EXPERIMENTAL PARAMETERS: human, plasma, oral, 400 mg, 400 mg QD of Form B, Day 1, 1.0 h, Mean; read-out: Compound I Concentration

>  <TEST SMILES>
CC(C)N1CCN(c2ccc(Nc3ncc4cc5n(c4n3)C3(CCCCC3)CNC5=O)nc2)CC1

>  <concentration at 1 h>
5.32 ng/mL

$$$$

* * *

METHOD SUMMARY: Noncompartmental pharmacokinetic parameters (Cmax, Tmax, AUC, Racc) in QD and BID cohorts of Form B
Assay type: in vivo, human
EXPERIMENTAL PARAMETERS: human, plasma, oral, 500 mg, Compound III; 500 mg QD of Form B; Cohort 4; Day 1; read-out: Cmax (Mean)

>  <MOLECULE>
O=C1NCC2(CCCCC2)n2c1cc1cnc(Nc3ccc(N4CCNCC4)cn3)nc12 [Compound III]

>  <Cmax, ng/mL>
7.98

$$$$

* * *

METHOD SUMMARY: Noncompartmental pharmacokinetic parameters (Cmax, Tmax, AUC, Racc) in QD and BID cohorts of Form B
Format: in vivo, human
EXPERIMENTAL PARAMETERS: human, plasma, oral, 500 mg, Compound III; 500 mg QD of Form B; Cohort 4; Day 29; read-out: Tmax (Mean)

>  <COMPOUND>
O=C1NCC2(CCCCC2)n2c1cc1cnc(Nc3ccc(N4CCNCC4)cn3)nc12 [Compound III]

>  <RESULT UNITS>
h

>  <Tmax>
3.67

$$$$

* * *

METHOD SUMMARY: Plasma concentration versus time of Compound I and metabolite Compound III in patients dosed QD or BID with Form B of Compound II plus fulvestrant
Type: in vivo, human
EXPERIMENTAL PARAMETERS: human, plasma, oral, 150 mg, Cohort 7, 150 mg BID of Form B, Day 8; read-out: Trough Compound I Concentration, Mean

>  <COMPOUND>
CC(C)N1CCN(c2ccc(Nc3ncc4cc5n(c4n3)C3(CCCCC3)CNC5=O)nc2)CC1 [Compound I]

>  <RESULT UNITS>
µg/mL

>  <concentration at 8 day>
0.0268

$$$$

* * *

METHOD SUMMARY: Plasma concentration versus time of Compound I and metabolite Compound III in patients dosed QD or BID with Form B of Compound II plus fulvestrant
Format: in vivo, human
EXPERIMENTAL PARAMETERS: human, plasma, oral, 150 mg, 150 mg BID of Form B, Day 1, 10.0 h, Median; read-out: Compound I Concentration

>  <COMPOUND>
CC(C)N1CCN(c2ccc(Nc3ncc4cc5n(c4n3)C3(CCCCC3)CNC5=O)nc2)CC1 [Compound I]

>  <concentration at 10 h / ng/mL>
8.98

$$$$

* * *

METHOD SUMMARY: Plasma concentration versus time of Compound I and metabolite Compound III in patients dosed QD or BID with Form B of Compound II plus fulvestrant
Format: in vivo, human
EXPERIMENTAL PARAMETERS: human, plasma, oral, 650 mg, Cohort 5, 650 mg QD of Form B, Day 29, 8.0 h; read-out: Compound I Concentration, Min

>  <TEST SMILES>
CC(C)N1CCN(c2ccc(Nc3ncc4cc5n(c4n3)C3(CCCCC3)CNC5=O)nc2)CC1

>  <concentration at 8 h>
43.2 ng/mL

$$$$

* * *

METHOD SUMMARY: Noncompartmental pharmacokinetic parameters (Cmax, Tmax, AUC, Racc) in QD and BID cohorts of Form B
Format: in vivo, human
EXPERIMENTAL PARAMETERS: human, plasma, oral, 200 mg, Compound I; 200 mg BID of Form B; Cohort 7; Day 1; read-out: AUClast (Mean)

>  <MOLECULE>
CC(C)N1CCN(c2ccc(Nc3ncc4cc5n(c4n3)C3(CCCCC3)CNC5=O)nc2)CC1 [Compound I]

>  <AUC(0-t) / ng·h/mL>
118

$$$$

* * *

METHOD SUMMARY: Plasma concentration versus time of Compound I and metabolite Compound III in patients dosed QD or BID with Form B of Compound II plus fulvestrant
Assay type: in vivo, human
EXPERIMENTAL PARAMETERS: human, plasma, oral, 500 mg, 500 mg QD of Form B, Day 1, […], Mean; read-out: Compound I Concentration

>  <TEST SMILES>
CC(C)N1CCN(c2ccc(Nc3ncc4cc5n(c4n3)C3(CCCCC3)CNC5=O)nc2)CC1

>  <concentration at 24 h [ng/mL]>
8.93

$$$$

* * *

METHOD SUMMARY: Plasma concentration versus time of Compound I and metabolite Compound III in patients dosed QD or BID with Form B of Compound II plus fulvestrant
Type: in vivo, human
EXPERIMENTAL PARAMETERS: human, plasma, oral, 100 mg, Cohort 6, 100 mg BID of Form B, Day 29, 2.0 h; read-out: Compound I Concentration, Mean
ENDPOINT NAME: concentration at 2 h (µg/mL)

>  <COMPOUND>
CC(C)N1CCN(c2ccc(Nc3ncc4cc5n(c4n3)C3(CCCCC3)CNC5=O)nc2)CC1 [Compound I]

>  <NUMERIC RESULT>
0.011

$$$$

* * *

METHOD SUMMARY: Noncompartmental pharmacokinetic parameters (Cmax, Tmax, AUC, Racc) in QD and BID cohorts of Form B
Type: in vivo, human
EXPERIMENTAL PARAMETERS: human, plasma, oral, 400 mg, Compound III; 400 mg QD of Form B; Cohort 3; Day 1; read-out: AUClast (Mean)

>  <MOLECULE>
O=C1NCC2(CCCCC2)n2c1cc1cnc(Nc3ccc(N4CCNCC4)cn3)nc12 [Compound III]

>  <AUC(0-t) [ng·h/mL]>
25.6

$$$$

* * *

METHOD SUMMARY: Plasma concentration versus time of Compound I and metabolite Compound III in patients dosed QD or BID with Form B of Compound II plus fulvestrant
Format: in vivo, human
EXPERIMENTAL PARAMETERS: human, plasma, oral, 650 mg, Cohort 5, 650 mg QD of Form B, Day 8; read-out: Trough Compound I Concentration, Mean

>  <TEST SMILES>
CC(C)N1CCN(c2ccc(Nc3ncc4cc5n(c4n3)C3(CCCCC3)CNC5=O)nc2)CC1

>  <concentration at 8 day (ng/mL)>
28.9

$$$$

* * *

METHOD SUMMARY: Plasma concentration versus time of Compound I and metabolite Compound III in patients dosed QD or BID with Form B of Compound II plus fulvestrant
Type: in vivo, human
EXPERIMENTAL PARAMETERS: human, plasma, oral, 200 mg, 200 mg QD of Form B, Day 1, 2.0 h, Median; read-out: Compound I Concentration

>  <TEST SMILES>
CC(C)N1CCN(c2ccc(Nc3ncc4cc5n(c4n3)C3(CCCCC3)CNC5=O)nc2)CC1

>  <concentration at 2 h [ng/mL]>
12.3

$$$$

* * *

METHOD SUMMARY: Plasma concentration versus time of Compound I and metabolite Compound III in patients dosed QD or BID with Form B of Compound II plus fulvestrant
Format: in vivo, human
EXPERIMENTAL PARAMETERS: human, plasma, oral, 500 mg, Cohort 4, 500 mg QD of Form B, Day 29, 12.0 h; read-out: Compound III Concentration, Min
ENDPOINT NAME: concentration at 12 h (ng/mL)

>  <TEST SMILES>
O=C1NCC2(CCCCC2)n2c1cc1cnc(Nc3ccc(N4CCNCC4)cn3)nc12

>  <NUMERIC RESULT>
2.1

$$$$

* * *

METHOD SUMMARY: Plasma concentration versus time of Compound I and metabolite Compound III in patients dosed QD or BID with Form B of Compound II plus fulvestrant
Type: in vivo, human
EXPERIMENTAL PARAMETERS: human, plasma, oral, 200 mg, 200 mg QD of Form B, Day 1, 10.0 h, Median; read-out: Compound I Concentration
ENDPOINT NAME: concentration at 10 h (ng/mL)

>  <TEST SMILES>
CC(C)N1CCN(c2ccc(Nc3ncc4cc5n(c4n3)C3(CCCCC3)CNC5=O)nc2)CC1

>  <ENDPOINT NAME>
concentration at 10 h

>  <RESULT UNITS>
ng/mL

>  <NUMERIC RESULT>
9.13

$$$$

* * *

METHOD SUMMARY: Noncompartmental pharmacokinetic parameters (Cmax, Tmax, AUC, Racc) in QD and BID cohorts of Form B
Format: in vivo, human
EXPERIMENTAL PARAMETERS: human, plasma, oral, 200 mg, Compound III; 200 mg BID of Form B; Cohort 8; Day 1; read-out: Tmax (Median)
ENDPOINT NAME: Tmax

>  <TEST SMILES>
O=C1NCC2(CCCCC2)n2c1cc1cnc(Nc3ccc(N4CCNCC4)cn3)nc12

>  <RESULT>
5 h

$$$$
